Molecular target: T1, human CD39 (full length, on cells) (human, UniProt P49961 1-510)
T1 construct: Recombinant on CHOK1-hCD39 cells or natural on SK-MEL-28, SK-MEL-5 and MOLP-8 cells; the cell line is named under assay; also called hCD39; ENTPD1
T1 sequence: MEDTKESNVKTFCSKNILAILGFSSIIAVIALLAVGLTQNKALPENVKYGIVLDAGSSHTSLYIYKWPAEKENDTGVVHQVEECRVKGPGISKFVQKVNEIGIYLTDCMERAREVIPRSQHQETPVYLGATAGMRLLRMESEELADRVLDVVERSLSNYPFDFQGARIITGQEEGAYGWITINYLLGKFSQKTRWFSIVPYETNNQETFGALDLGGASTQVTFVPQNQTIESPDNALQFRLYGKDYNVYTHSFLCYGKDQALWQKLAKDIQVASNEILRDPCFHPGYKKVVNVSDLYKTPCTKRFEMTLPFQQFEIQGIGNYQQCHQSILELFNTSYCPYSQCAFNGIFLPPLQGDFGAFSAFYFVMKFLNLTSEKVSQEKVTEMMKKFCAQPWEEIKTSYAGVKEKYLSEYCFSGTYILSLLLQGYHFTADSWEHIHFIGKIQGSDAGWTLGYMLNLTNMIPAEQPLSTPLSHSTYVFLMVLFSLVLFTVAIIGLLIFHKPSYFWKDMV
Assay: FACS, MOLP-8 cells
Mark satisfied only for EC50 values smaller than 2 nM; exact matches and larger values are not satisfied.

hu23.H1L3 (antibody, V domains shown, humanized c23) VH: QVQLVQSGAEVKKPGASVKVSCKASGYNLKDTFLHWVRQAPGQRLEWMGRIDPANGNIKYDPKFQGRVTITRDTSASTAYMELSSLRSEDTAVYYCARSPYYYGSGYRIFDVWGQGTTVTVSS VL: EIVLTQSPATLSASPGERATLSCSAFSSVNYMHWYQQKPGQAPRLLIYTTSNLASGIPARFSGSGSGTDYTLTISSMEPEDFAVYYCQQRSTYPFTFGQGTKLEIK :: not satisfied
hu23.H2L2 (antibody, V domains shown, humanized c23) VH: QVQLVQSGAEVKKPGASVKVSCKASGYNLKDTFLHWVRQAPGQGLEWMGRIDPANGNIKYDPKFQGRVTITADTSASTAYMELSSLRSEDTAVYYCANSPYYYGSGYRIFDVWGQGTTVTVSS VL: EIVLTQSPATLSLSPGERATLSCSAFSSVNYMHWYQQKPGQAPRLLIYTTSNLASGIPARFSGSGSGTDYTLTISSLEPEDFAVYYCQQRSTYPFTFGQGTKLEIK :: satisfied
hu23.H3L3 (antibody, V domains shown, humanized c23) VH: QVQLVQSGAEVKKPGASVKLSCKASGYNLKDTFLHWVRQAPGQGLEWIGRIDPANGNIKYDPKFQGRATITADTSASTAYMELSSLRSEDTAVYYCANSPYYYGSGYRIFDVWGQGTTVTVSS VL: EIVLTQSPATLSASPGERATLSCSAFSSVNYMHWYQQKPGQAPRLLIYTTSNLASGIPARFSGSGSGTDYTLTISSMEPEDFAVYYCQQRSTYPFTFGQGTKLEIK :: not satisfied

Prompt: # TODO verify EC50 < 2 nM strictly for this binder: hu23.H5L5 (antibody, V domains shown, humanized c23) VH: QVQLVQSGAEVKKPGASVKVSCKASGYNLKDTFLHWVRQAPGQGLEWMGRIDPANGNIKYDPKFQGRVTITADTSANTAYMELISLRSEDTAVYYCANSPYYYGSGYRIFDVWGQGTTVTVSS VL: QIVLTQSPATLSLSPGERATLSCSAFSSVNYMHWYQQKPGQAPRLLIYTTSNLASGIPTRFSGSGSGTSYTLTISSLEPEDFAVYYCQQRSTYPFTFGQGTKLEIK
Completion: satisfied

Prompt: Is it true that EC50 reported for hu23.H7L1 (antibody, V domains shown, humanized c23) VH: EVQLVQSGAEVKKPGASVKLSCKASGYNLKDTFLHWVKQAPGQGLEWIGRIDPANGNIKYDPKFQGKATLTADTSANTAYLELISLRSEDTAVYYCANSPYYYGSGYRIFDVWGQGTTVTVSS VL: EIVLTQSPATLSLSPGERATLSCSAFSSVNYMHWYQQKPGQAPRLLIYTTSNLASGIPARFSGSGSGTDFTLTISSLEPEDFAVYYCQQRSTYPFTFGQGTKLEIK is less than 2 nM?
Completion: satisfied

Prompt: Consider the binder hu23.H5L7 (antibody, V domains shown, humanized c23) VH: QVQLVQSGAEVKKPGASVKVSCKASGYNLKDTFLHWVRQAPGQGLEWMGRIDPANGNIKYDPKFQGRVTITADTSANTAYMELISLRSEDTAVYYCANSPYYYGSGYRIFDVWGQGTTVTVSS VL: QIVLTQSPATLSASPGERVTITCSAFSSVNYMHWYQQKPGQAPKLLIYTTSNLASGVPTRFSGSGSGTSYTLTISSMEPEDFAVYYCQQRSTYPFTFGQGTKLEIK . Is its EC50 strictly less than 2 nM?
Completion: satisfied
